Data credit: the supplement of paper PMC9694430

Test system: LOC_OS05G43570-cb004;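 note: purified Escherichia coli-expressed rice kinase domain construct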
Method description: thermal shift delta Tm vs DMSO control; higher = stronger stabilization (binding)
Study conditions: 12.5 µM; protein concentration 2 µM
Each entry belongs to exactly one class, chosen by where its thermal shift delta Tm falls: low: < 0.1 °C; moderate: ≥ 0.1 °C and < 0.5 °C; high: ≥ 0.5 °C

>>> answer_label("O=C(O)c1ccc(-c2c[nH]c3ncc(-c4ccccc4)cc23)cc1C1CCCC1")
"low"
>>> answer_label("Cc1[nH]c(/C=C2\\C(=O)Nc3ccc(S(=O)(=O)Cc4c(Cl)cccc4Cl)cc32)c(C)c1C(=O)N1CCC[C@@H]1CN1CCCC1")
"high"
>>> answer_label("COc1ccc(CNC(=O)Nc2ncc([N+](=O)[O-])s2)cc1")
"high"
>>> answer_label("O=C1c2ccc(Nc3ccc(F)cc3F)cc2CCc2ccc(OC[C@H](O)CO)cc21 [Skepinone-L]")
"moderate"
>>> answer_label("O=C1NC(=O)[C@@H](c2cn3c4c(cccc24)CCC3)[C@@H]1c1c[nH]c2ccccc12 [Tivantinib (ARQ 197)]")
"high"
>>> answer_label("CONC(=O)c1ccccc1Nc1cc(Nc2cc(C)nn2C(C)C)ncc1Cl")
"moderate"
>>> answer_label("Cc1cc2c(F)c(Oc3ncnn4cc(OC[C@@H](C)O)c(C)c34)ccc2[nH]1")
"low"
>>> answer_label("COc1cc2ccc(=O)oc2cc1O")
"low"
>>> answer_label("CC(C)c1ccc2oc3nc(N)c(C(=O)O)cc3c(=O)c2c1")
"moderate"
>>> answer_label("CC(=O)Nc1cccc(-n2c(=O)n(C3CC3)c(=O)c3c(Nc4ccc(I)cc4F)n(C)c(=O)c(C)c32)c1")
"moderate"
>>> answer_label("COc1cc2ncnc(Nc3cccc(Cl)c3)c2cc1OC")
"high"
>>> answer_label("C[C@H]1CNC(=O)c2cnn3ccc(nc23)N[C@H](C)c2cc(F)ccc2O1")
"high"
>>> answer_label("CC(C)(CO)n1cc(C(=O)c2cncc(NC(=O)Cc3ccc(Cl)cn3)c2)c2cnc(N)nc21")
"moderate"
>>> answer_label("OCCn1cc(-c2cnc3nnn(Cc4ccc5ncccc5c4)c3n2)cn1")
"moderate"
>>> answer_label("CCS(=O)(=O)c1cccc(-c2cc(C(=O)NC3CCN(C)CC3)c(C)c3[nH]c4ncc(C)cc4c23)c1")
"moderate"
>>> answer_label("Oc1ccc(Nc2nc(-c3ccc(Cl)cc3)cs2)cc1")
"low"
>>> answer_label("Cc1cc(Nc2cc(N)ncn2)c(=O)n2c1C(=O)NC21CCCCC1")
"low"
>>> answer_label("Nc1cccc(-c2cc3c(Oc4cccc(O)c4)ncnc3[nH]2)c1")
"high"
